Could you please report measured AC50 for the items listed next?

Observed AC50 on Alpha-2B adrenergic receptor (Homo sapiens), entry "C/C(=C\C(=O)OCCCCCCCCC(=O)O)C[C@@H]1OC[C@H](C[C@@H]2O[C@H]2[C@@H](C)[C@H](C)O)[C@@H](O)[C@H]1O" , equals > 10 µM

Observed AC50 on Alpha-2B adrenergic receptor (Homo sapiens), entry "COc1ccccc1Oc1c(NS(=O)(=O)c2ccc(C(C)(C)C)cc2)nc(-c2ncccn2)nc1OCCO" , equals > 10 µM

Observed AC50 on Alpha-2B adrenergic receptor (Homo sapiens), entry "OC[C@H]1O[C@@](CO)(O[C@H]2O[C@H](CO)[C@@H](O)[C@H](O)[C@H]2O)[C@@H](O)[C@@H]1O" , equals > 30 µM

Observed AC50 on Alpha-2B adrenergic receptor (Homo sapiens), entry CC(C)N(CCC(C(N)=O)(c1ccccc1)c1ccccn1)C(C)C (configuration not stated) [DISOPYRAMIDE] , equals > 10 µM

Observed AC50 on Alpha-2B adrenergic receptor (Homo sapiens), entry "CC(=O)SC[C@@H](C)C(=O)N1CCC[C@H]1C(=O)N[C@@H](Cc1ccccc1)C(=O)O" , equals > 30 µM

Observed AC50 on Alpha-2B adrenergic receptor (Homo sapiens), entry "COc1ccc2nc3cc(Cl)ccc3c(Nc3cc(CN4CCCC4)c(O)c(CN4CCCC4)c3)c2n1" , equals > 30 µM

Observed AC50 on Alpha-2B adrenergic receptor (Homo sapiens), entry "Cc1cc(C(C)(C)C)cc(C)c1CC1=NCCN1" , equals 0.208 µM

Just for reference, ChEMBL document CHEMBL5291721 is where these values come from.
